Target: T1, purified recombinant RSV-Gb protein (Sino Biologics) (Respiratory Syncytial Virus subtype B, …, UniProt O36633 67-299)
T1 sequence: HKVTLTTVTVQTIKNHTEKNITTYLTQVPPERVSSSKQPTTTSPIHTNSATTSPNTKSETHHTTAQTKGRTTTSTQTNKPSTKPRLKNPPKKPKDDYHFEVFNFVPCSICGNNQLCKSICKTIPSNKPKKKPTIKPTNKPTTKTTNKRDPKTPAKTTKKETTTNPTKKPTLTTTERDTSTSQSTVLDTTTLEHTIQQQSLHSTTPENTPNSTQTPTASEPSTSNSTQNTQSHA
Assay: SPR (IBIS MX96), IgG captured on anti-human IgG, RSV Gb injected
metric name: kon (M⁻¹ s⁻¹)
State just the number; it will be interpreted in M⁻¹ s⁻¹.

Fill in reported kon for this entry: AT40 (antibody, V domains shown) VH: QVQLVESGGGVVQPGMSHRLSCAASTLIFDRHALHWVRQAPGAGLEWVAILSYDGTTDYYADSVKGRFTVSRDTSKNTVFLQMNGLRPQDTAVYYCARGRALDDFADYGGYYFDYWGQGILVTVSS VL: DIQMTQSPSSVSASVGDKVTITCRASQGISTWLAWYQQKPGKAPALLIYSASRLQSGVPSRFSGSGSGTDFTLTISSLQPEDYATYYCQQANTFPFTFGPGTKVDIKR
340000

Fill in reported kon for this entry: AT44 (antibody, V domains shown) VH: QVQLQASGPGLVKPSETLSLTCNVSGYSVSSGHYWAWVRQSPGKGLEWIGGIHHSGSTYTNPPLKSRVSISIDTSKNQFSLRLTSVTAADTAVYFCARDLYDLSTGPFWFDPWGQGTLVTVSS VL: EIVMTQSPATLSVSPGERVTLSCRASQSVSTKVVWYQQKFGQAPRLLIYGASTRATGIPVRFSGSGSGTEFTLTISSLQSEDLAVYFCQQYNKWPMYTFGQGTKLEIKR
340000

Fill in reported kon for this entry: AT49 (antibody, V domains shown) VH: QVLLVQSGAEIKKPGSSVKISCKASGGTFSSLALNWVRQAPGQGLQWMGGIIPLFGTQNYAQKFQGRVTITADESTSTAYMELSGLRPEDTAVYYCALFLWFGDQTSDDGFDVWGQGTVVTVSS VL: DIVMTQSPLSLTVTPGEPASISCRSSQSLLHGNGYKYLHWYLQKPGQSPQLLIYLGSNRASGVPARFSGSGSDTDFTLKISTVETEDVGVYYCMQALQSPTFGQGTKVEIKR
120000

Fill in reported kon for this entry: AT42 (antibody, V domains shown) VH: QVQLQESGPGLVQPSETLSLTCTVSGDSITSNVYYWGWIRQPPGKGLEWIGSIFHSGITHYTPSLNSRVTISVDTSKNQFSLRLSSATAADTAVYYCARHWAGLYFDSWGQGALVAVSS VL: EIVLTQSPGTLSLSPGERATLSCRASQTVSSSHLAWYQQKPGQAPRLLIHGSSSRATGIPERFSGSGSGPDFTLTISRLKPEDFAVYYCQYYGDSPGSFGEGTKVEIKR
400000

Every entry's value here was drawn from patent US20150004155A1.
